assay: DPPH˙ radical scavenging by cyclic voltammetry; conditions: compound alone
measured property: Iox (μA)
Answer format: numeric, μA implied, no suffix.

Worked cases, Iox (μA) given:
Cc1csc(N/N=C/c2ccc(O)cc2O)n1.Cl
31.76
Br.NC(=O)c1cc(-c2csc(N/N=C/c3ccc(O)cc3O)n2)ccc1O
15.65

IN: Return the recorded Iox (μA) value; entry: "Br.Oc1ccc(/C=N/Nc2nc(-c3ccccc3)cs2)c(O)c1"
OUT: 47.3

IN: Tell me measured Iox (μA) for "C/C(=N\Nc1nc(C)cs1)c1ccc(O)cc1O" please.
OUT: 43.29

IN: Indicate its recorded Iox (μA); the compound in question is "C/C(=N\Nc1nc(-c2ccc(O)c(O)c2)cs1)c1ccc(O)cc1O.Cl"
OUT: 6.97

---

assay: Ferric ions (Fe^3+) reducing antioxidant power by cyclic voltammetry; conditions: compound + Fe^3+/Fe^2+; 1st Ered
measured property: Ered (V)
Answer format: numeric, V implied, no suffix.

Cl.Oc1ccc(/C=N/Nc2nc(-c3ccc(O)c(O)c3)cs2)c(O)c1 [Compound 8b]
0.079
Br.C/C(=N\Nc1nc(-c2ccc(O)c(C(N)=O)c2)cs1)c1ccc(O)cc1O [Compound 7a]
0.164

Then there is this compound:
IN: Input Br.Oc1ccc(/C=N/Nc2nc(-c3ccccc3)cs2)c(O)c1 [Compound 6b] , output reported Ered (V).
OUT: 0.149

---

experiment: DPPH˙ radical scavenging by cyclic voltammetry; conditions: compound alone; 2nd Ired
Please enter met where Ired (μA) is greater than or equal to -4 μA, and not met where it is lower.

Br.NC(=O)c1cc(-c2csc(N/N=C/c3ccc(O)cc3O)n2)ccc1O
met
Cc1csc(N/N=C/c2ccc(O)cc2O)n1.Cl
not met
C/C(=N\Nc1nc(-c2ccc(O)c(O)c2)cs1)c1ccc(O)cc1O.Cl
not met
C/C(=N\Nc1nc(C)cs1)c1ccc(O)cc1O
not met

Moving on to the next molecule.
IN: In plain terms: is recorded Ired (μA) at least -4 μA for "Cl.Oc1ccc(/C=N/Nc2nc(-c3ccc(O)c(O)c3)cs2)c(O)c1" ?
OUT: met

---

assay: Ferric ions (Fe^3+) reducing antioxidant power by cyclic voltammetry; conditions: compound alone 0.5 mM in 0.1 M HClO4; 3rd Eox column
Listing: Eox (V) of selected compounds
Number only, in V; omit the unit.

Cl.Oc1ccc(/C=N/Nc2nc(-c3ccc(O)c(O)c3)cs2)c(O)c1
0.349
C/C(=N\Nc1nc(C)cs1)c1ccc(O)cc1O
0.573
C/C(=N\Nc1nc(-c2ccc(O)c(O)c2)cs1)c1ccc(O)cc1O.Cl
0.330

Now turn to the next compound.
IN: Let me know recorded Eox (V) for "Br.C/C(=N\Nc1nc(-c2ccccc2)cs1)c1ccc(O)cc1O" , thanks.
OUT: 0.586

---

Test: Ferric ions (Fe^3+) reducing antioxidant power by cyclic voltammetry
Conditions: compound 0.5 mM + Fe^3+/Fe^2+ (0.5 mM potassium ferricyanide); 1st Eox column
Description: The evaluated compounds’ stock solutions used were prepared at a concentration of 5 mM. To test their redox properties, dilutions of 0.5 mM and 2 mM were prepared in 0.1 M HClO4 electrolyte (pH = 1.2). Screen-printed electrodes (SPEs; Metrohm DropSens, Oviedo, Spain) (planar electrodes) with graphite and gold working electrodes were used. […] This method is based on the evaluation of the influence of the compound measured by the direct reduction of Fe[(CN)6]^3− to Fe[(CN)6]^2−. […]
The compounds listed here are annotated with their Eox (V).
Dear colleague, please return just the value in V, with no unit written.

IN: Return Eox (V) (reported value) for this compound: "Br.NC(=O)c1cc(-c2csc(N/N=C/c3ccc(O)cc3O)n2)ccc1O"
OUT: 0.205

IN: Specify measured Eox (V) for "Br.Oc1ccc(/C=N/Nc2nc(-c3ccccc3)cs2)c(O)c1" .
OUT: 0.203

IN: Using the record for "Cc1csc(N/N=C/c2ccc(O)cc2O)n1.Cl" , state its measured Eox (V).
OUT: 0.152

IN: Using the record for "Cl.Oc1ccc(/C=N/Nc2nc(-c3ccc(O)c(O)c3)cs2)c(O)c1" , state its measured Eox (V).
OUT: 0.083

IN: Please supply the value of reported Eox (V) for the item "C/C(=N\Nc1nc(C)cs1)c1ccc(O)cc1O"
OUT: 0.152

IN: Please look at this compound and report its Eox (V): "C/C(=N\Nc1nc(-c2ccc(O)c(O)c2)cs1)c1ccc(O)cc1O.Cl"
OUT: 0.072
